method.summary: qHTS drug screen for cell cycle checkpoint inhibitors in PARPi-resistant BRCA-mutant ovarian cancer cell lines. (AID 1963452)
stated.conditions: PEO1/OlaR viability, CellTiter-Glo luminescence, 96 h; active compounds read low
Source text: Women's Malignancies Branch, Center for Cancer Research (CCR), National Cancer Institute (NCI), National Institutes of Health (NIH), Bethesda, MD Poly (ADP-ribose) polymerase inhibitors (PARPis) have changed the treatment paradigm in breast cancer gene (BRCA) - mutant high-grade serous ovarian carcinoma (HGSC). […] 6; Detection; Luminescence, PHERAstar (BMG Labtech) plate reader. […] 6. Luminescence readings were taken using PHERAstar (BMG Labtech). […]
Catalogue of compounds with associated Z-AUC
assay.metric: Z-AUC

1) CCC(CC)CC1(C(=O)Nc2ccccc2SC(=O)C(C)C)CCCCC1
-0.732
2) COCCCc1sc(-c2ccccc2)nc1C(=O)Nc1ccccc1-c1nc2cc(CN3CCCC3)cnc2s1
0.0751
3) Cc1ncc(NC(=O)c2ccc(CN3CCN(C)CC3)c(C(F)(F)F)c2)cc1Nc1nccc(-c2cccnc2)n1
0.889

----------
Test system: Nanoluciferase (engineered Oplophorus gracilirostris luciferase)
method.summary: Primary Nanoluciferase (NLuc) qHTS assay for identification of artifact compounds. (AID 1845222);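 note: NLuc secreted into diluted conditioned medium of S16 cells; 0% = DMSO and -100% = no enzyme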
stated.conditions: NLuc-conditioned medium, Nano-Glo luminescence, 5 min; series mostly up to 54.1 µM
Active and inactive are the calls of the source. Calls come from the whole dose curve; as a rule, active = well fitted inhibition curve with a large enough effect; inconclusive = small, poorly fitted or top-dose-only effect; inactive = flat fitted curve, though single readings scatter.
assay.metric: activity, negative = inhibition

1) C[C@@H](c1ccccc1)N(C(N)=NC#N)c1cccc2ncccc12
inactive
2) C[C@H]1[C@H](C)CC[C@]2(C(=O)O)CC[C@]3(C(=O)O)C(=CCC4[C@@]5(C)CC[C@H](O[C@@H]6O[C@@H](C)[C@H](O)[C@@H](O)[C@H]6O)C(C)(C)C5CC[C@]43C)[C@H]12 (some centres not stated)
inactive
3) CCCC1=CC2=C(CO1)C(=O)C(C)(O)C(OC(=O)c1c(C)cc(OC)cc1O)C2 (configuration not stated)
inactive
4) O=C(c1c2ccccc2cc2ccccc12)N1CCC(N2CCC[C@@H](C(=O)N3CCOCC3)C2)CC1
inactive
5) CC(=O)OC12CC(C)C(OC(=O)c3ccccc3)C1/C=C(/C)C(OC(=O)c1ccccc1)CC(=O)C(C)(C)/C=C/C(C)C2=O (configuration not stated)
inactive
6) C=C[C@H]1[C@H](O[C@@H]2O[C@H](CO)[C@@H](O)[C@H](O)[C@H]2O)OC=C2C(=O)N3Cc4c([nH]c5ccccc5c4=O)[C@@H]3C[C@H]21
inactive
7) O=C(OCC1OC(Oc2ccc(O)cc2COC(=O)C2(O)C(O)CCC(=O)C2OC(=O)C2C=CCC2)C(OC(=O)C2C=CCC2)C(O)C1O)C1C=CCC1 (configuration not stated)
inactive

----------
method.summary: Primary redox qHTS assay for identification of artifact compounds. (AID 1845223);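 note: 0% = DMSO and 100% = reference compound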
stated.conditions: Amplex Red/HRP redox cycling with DTT, fluorescence; series mostly up to 53.8 µM
Records with an inconclusive call do not appear. The source made the active and inactive calls. The call rests on the fitted dose curve; in most records, active means well fitted activation curve with a large enough effect; inconclusive means small, poorly fitted or top-dose-only effect; inactive means flat fitted curve, though single readings scatter.
Catalogue of molecules with associated redox activity (% of DA3003)
assay.metric: redox activity (% of DA3003)

1. C[C@@H]1O[C@@H](O[C@H]2[C@H](OC(=O)[C@]34CCC(C)(C)C[C@H]3C3=CCC5[C@@]6(C)CC[C@H](O[C@@H]7O[C@H](CO[C@@H]8OC[C@H](O)[C@H](O)[C@H]8O[C@@H]8OC[C@@H](O)[C@H](O)[C@H]8O)[C@@H](O)[C@H](O)[C@H]7O)C(C)(C)C6CC[C@@]5(C)[C@]3(C)C[C@H]4O)O[C@H](CO)[C@@H](O)[C@@H]2O)[C@H](O[C@@H]2O[C@H](CO)[C@@H](O)[C@H](O)[C@H]2O)[C@H](O)[C@H]1O[C@@H]1OC[C@@H](O)[C@H](O[C@@H]2OC[C@@H](O)[C@H](O)[C@H]2O)[C@H]1O (stereo partly drawn)
13.7% [at 6.41 µM] (inactive)
2. CC1(C)CC[C@]2(C(=O)O[C@@H]3O[C@H](CO)[C@@H](O)[C@H](O)[C@H]3O)CC[C@]3(C)C(=CCC4[C@@]5(C)CC[C@H](O[C@@H]6O[C@H](C(=O)O)[C@@H](O[C@@H]7O[C@H](CO)[C@@H](O)[C@H](O)[C@H]7O)[C@H](O)[C@H]6O[C@@H]6O[C@H](CO)[C@@H](O)[C@H](O)[C@H]6O)C(C)(C)C5CC[C@]43C)C2C1 (stereo partly drawn)
12.6% [at 11.5 µM] (inactive)
